test system: MDA-MB-231 complex spheroids, growth inhibition; assay: Anticancer human tumor MDA-MB-231 cell line growth inhibition [Asc]; conditions: second compound 0.1 µM; first compound 0.03 µM; hits give low values;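 also: spheroids exposed to compounds for 7 days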

MOLECULE	viability, T/C [%]
CCN1C(C(=O)NC23CCC(C(=O)O)(CC2)CC3)C(c2cccc(Cl)c2F)C2(C(=O)Nc3cc(Cl)ccc32)C12CCCCC2 (stereo not drawn) + CNC(C)C(=O)NC1CN(S(=O)(=O)c2cccc(S(=O)(=O)N3CCC4CCC(C(=O)NC(c5ccccc5)c5ccccc5)N4C(=O)C(NC(=O)C(C)NC)C3)c2)CCC2CCC(C(=O)NC(c3ccccc3)c3ccccc3)N2C1=O	1.6
NC(=O)C(=Cn1cnc(-c2cc(C(F)(F)F)cc(C(F)(F)F)c2)n1)c1cncnc1 + CNC(C)C(=O)NC1CN(S(=O)(=O)c2cccc(S(=O)(=O)N3CCC4CCC(C(=O)NC(c5ccccc5)c5ccccc5)N4C(=O)C(NC(=O)C(C)NC)C3)c2)CCC2CCC(C(=O)NC(c3ccccc3)c3ccccc3)N2C1=O	1.76
CCN1C(C(=O)NC23CCC(C(=O)O)(CC2)CC3)C(c2cccc(Cl)c2F)C2(C(=O)Nc3cc(Cl)ccc32)C12CCCCC2 (stereo not drawn) + Cc1c(S(C)(=O)=O)c(-c2cc(F)cc(N3CCN(c4ccc(NS(=O)(=O)c5ccc(NC(CCN6CCC(C(=O)OCCCP(=O)(O)O)CC6)CSc6ccccc6)c(S(=O)(=O)C(F)(F)F)c5)cc4)CC3)c2)c(-c2ccc(Cl)cc2)n1C(C)C	82.6

Cited source for all entries: PubChem BioAssay AID1963443
